Below, each of the binders is paired with its reported kon value.
- System under test: T1, cynomolgus monkey BCMA (cynomolgus monkey, UniProt A0A2K5UD97 1-53)
- T1 construct: Soluble analyte in SPR; construct not described; also called cyBCMA; Cyno BCMA
- T1 sequence (A0A2K5UD97 entry or part of it): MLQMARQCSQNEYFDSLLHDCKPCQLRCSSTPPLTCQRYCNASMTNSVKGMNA
- Assay explanation: SPR, IgG on chip, cyBCMA analyte, 37C
State just the number; it will be interpreted in M⁻¹ s⁻¹.

Worked examples, 2 binders total:
Binder	Result unit	Data value
L3.PY/L1.PH/H3.AE (antibody, V domains shown, IgG) VH: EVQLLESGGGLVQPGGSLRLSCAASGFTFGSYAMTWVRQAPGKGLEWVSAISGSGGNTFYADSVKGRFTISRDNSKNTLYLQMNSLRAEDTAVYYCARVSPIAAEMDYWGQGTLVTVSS VL: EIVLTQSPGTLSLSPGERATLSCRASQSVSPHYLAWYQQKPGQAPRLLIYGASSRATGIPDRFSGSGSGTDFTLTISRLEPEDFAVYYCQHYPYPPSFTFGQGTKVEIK	M⁻¹ s⁻¹	2.61e+06
L3.PY/L1.FF/H2.QL (antibody, V domains shown, IgG) VH: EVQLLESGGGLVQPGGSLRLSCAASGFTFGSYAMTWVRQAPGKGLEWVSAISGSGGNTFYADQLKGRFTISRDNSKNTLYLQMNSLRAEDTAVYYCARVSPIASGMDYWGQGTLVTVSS VL: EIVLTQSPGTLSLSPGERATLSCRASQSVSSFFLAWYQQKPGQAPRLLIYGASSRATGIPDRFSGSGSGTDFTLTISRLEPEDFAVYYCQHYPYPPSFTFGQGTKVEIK	M⁻¹ s⁻¹	2.36e+06

Moving on to the next binder.
Could you please provide reported kon for L3.PY/L3.KF/H2.DY (antibody, V domains shown, IgG) VH: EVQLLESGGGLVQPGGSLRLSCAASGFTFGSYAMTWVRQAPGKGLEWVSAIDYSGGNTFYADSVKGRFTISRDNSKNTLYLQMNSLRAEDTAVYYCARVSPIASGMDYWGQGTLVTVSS VL: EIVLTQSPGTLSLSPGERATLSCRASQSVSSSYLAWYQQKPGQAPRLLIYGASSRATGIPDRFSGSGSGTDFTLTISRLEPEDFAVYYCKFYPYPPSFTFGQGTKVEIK ? Thanks! 2.08e+06

Entry source: patent US20190241669A1
